These measurements were taken from ChEMBL document CHEMBL1137896.

Target: Glutamate receptor ionotropic, AMPA (Rattus norvegicus, UniProt P19490+P19491+P19492+P19493)
Assay: Displacement of [3H]AMPA (5 nM) from ionotropic glutamate receptor AMPA of rat cerebral cortex synaptic membrane preparation
measurementKind: pKi
In simple prose, pKi is minus the logarithm base ten of a concentration in moles per litre.

Completed entries (count: 4):
O=C(Nc1ccc(C(=O)O)cc1)OCc1cn(-c2cc3nc(C(=O)O)c(O)nc3cc2C(F)(F)F)cn1: 7.80
Cc1ccc(NC(=O)OCc2cn(-c3cc4nc(C(=O)O)c(O)nc4cc3C(F)(F)F)cn2)cc1: 7.70
O=C(Nc1ccc(Br)cc1)OCc1cn(-c2cc3nc(C(=O)O)c(O)nc3cc2C(F)(F)F)cn1: 7.70
O=C(Nc1ccccc1)OCc1cn(-c2cc3nc(C(=O)O)c(O)nc3cc2C(F)(F)F)cn1: 7.64

Kindly review the next compound as well.
Task: Recorded pKi for O=C(O)c1nc2cc(-n3ccnc3)c(C(F)(F)F)cc2nc1O , please?
Output: 7.07

---

Overview of recorded log10 of Ki for various molecules
Molecular target: Glutamate receptor ionotropic, AMPA (Rattus norvegicus, UniProt P19490+P19491+P19492+P19493)
Test: Displacement of [3H]AMPA (5 nM) from ionotropic glutamate receptor AMPA of rat cerebral cortex synaptic membrane preparation
Format: tissue-based
# log10 transformed; quantity=Ki; unit=nM

Completed entries (count: 3):
COc1ccc(NC(=O)OCc2cn(-c3cc4nc(C(=O)O)c(O)nc4cc3C(F)(F)F)cn2)cc1: 1.48
O=C(Nc1cc(Cl)cc(Cl)c1)OCc1cn(-c2cc3nc(C(=O)O)c(O)nc3cc2C(F)(F)F)cn1: 1.11
O=C(NCc1ccccc1)OCc1cn(-c2cc3nc(C(=O)O)c(O)nc3cc2C(F)(F)F)cn1: 2.28

Task: Recorded log10 of Ki for O=C(Nc1cccc(C(=O)O)c1)OCc1cn(-c2cc3nc(C(=O)O)c(=O)[nH]c3cc2C(F)(F)F)cn1 , please?
Output: 1.54

Task: Recorded log10 of Ki for O=C(Nc1cccc(Br)c1)OCc1cn(-c2cc3nc(C(=O)O)c(O)nc3cc2C(F)(F)F)cn1 , please?
Output: 0.72

Task: Recorded log10 of Ki for O=C(Nc1ccc(C(F)(F)F)cc1)OCc1cn(-c2cc3nc(C(=O)O)c(O)nc3cc2C(F)(F)F)cn1 , please?
Output: 1.46
